Source: PubChem BioAssay AID2060494

In this section, each of the molecules is paired with its reported viability, T/C.
Tested on: 435261-313-R-J1-PDC complex spheroid viability
TEST_NAME: Anticancer human tumor 435261-313-R-J1-PDC patient-derived colon adenocarcinoma cell line growth inhibition [GQUAD]
CONDITION: second compound 3.16 µM; first compound 0.1 µM; stronger effect = lower value

Record excerpt, results attached:
MOLECULE	RESULT
CC1COCCN1c1cc(C2(S(C)(=N)=O)CC2)nc(-c2ccnc3[nH]ccc23)n1 (stereo not drawn) + Cc1cnc(CNC(=O)c2c(=O)c3ccc(N4CCCN(C)CC4)nc3n3c2sc2ccccc23)cn1	10.2%
Nc1ccn(C2OC(CO)C(O)C2(F)F)c(=O)n1 (stereo not drawn) + CN(C)c1ccc(Nc2c3ccc(NC(=O)CCN4CCCC4)cc3nc3cc(NC(=O)CCN4CCCC4)ccc23)cc1	58%

Now let's try a different one.
stdin: Entry CC(C)n1c(=O)n(C)c2cnc3cc(F)c(-c4ccc(OCCCN5CCCCC5)nc4)cc3c21 + CN(C)c1ccc(Nc2c3ccc(NC(=O)CCN4CCCC4)cc3nc3cc(NC(=O)CCN4CCCC4)ccc23)cc1 needs its viability, T/C filled in; supply it.
stdout: 54.4%

* * *

Tested on: 435261-313-R-J1-PDC complex spheroid viability
TEST_NAME: Anticancer human tumor 435261-313-R-J1-PDC cell line growth inhibition [GQUAD];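 note: spheroids exposed to the agents for seven days before readout; percent of vehicle control viability with DMSO wells as 100%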
CONDITION: second compound 3.16 µM; first compound 0.0316 µM; stronger effect = lower value
Hi! Could you tag entries with viability, T/C below 20% as Satisfied, and those at or above as Not satisfied? Much appreciated.

Illustrative cases are given below, each with its answer.
MOLECULE	CLASSIFICATION
Cn1ncnc1[C@H]1c2n[nH]c(=O)c3cc(F)cc(c23)N[C@@H]1c1ccc(F)cc1 + CN(C)c1ccc(Nc2c3ccc(NC(=O)CCN4CCCC4)cc3nc3cc(NC(=O)CCN4CCCC4)ccc23)cc1	Not satisfied
Cn1ncnc1[C@H]1c2n[nH]c(=O)c3cc(F)cc(c23)N[C@@H]1c1ccc(F)cc1 + Cc1cnc(CNC(=O)c2c(=O)c3ccc(N4CCCN(C)CC4)nc3n3c2sc2ccccc23)cn1	Not satisfied
COc1ncnc(C2CC2)c1-c1ncc2cnn(Cc3ccc(-c4nc(C(F)(F)F)cn4C(C)C)cc3)c2n1 + Cc1cnc(CNC(=O)c2c(=O)c3ccc(N4CCCN(C)CC4)nc3n3c2sc2ccccc23)cn1	Satisfied
Cc1[nH]c2ccccc2c1CCNCc1ccc(/C=C/C(=O)NO)cc1 + Cc1[nH]c2ccc(F)cc2c1-c1nc2c3cccnc3c3ncccc3c2[nH]1	Not satisfied

As a next step, examine the molecule that follows.
stdin: Consider O=c1[nH]cc(F)c(=O)[nH]1 + CN(C)c1ccc(Nc2c3ccc(NC(=O)CCN4CCCC4)cc3nc3cc(NC(=O)CCN4CCCC4)ccc23)cc1 . Does its viability, T/C lie strictly below 20%?
stdout: Not satisfied

* * *

Tested on: 435261-313-R-J1-PDC complex spheroid viability
TEST_NAME: Anticancer human tumor 435261-313-R-J1-PDC cell line growth inhibition [GQUAD];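 note: spheroids exposed to the agents for seven days before readout; percent of vehicle control viability with DMSO wells as 100%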
CONDITION: second compound 0.1 µM; first compound 0.0316 µM; stronger effect = lower value
In this section, each of the compounds is paired with its reported viability, T/C.
Express it in %; write the number only.

COMPOUND	QUANTITY_UNIT	viability, T/C
Nc1ccn(C2OC(CO)C(O)C2(F)F)c(=O)n1 (stereo not given) + Cc1[nH]c2ccc(F)cc2c1-c1nc2c3cccnc3c3ncccc3c2[nH]1	%	53.2
CC1COCCN1c1cc(C2(S(C)(=N)=O)CC2)nc(-c2ccnc3[nH]ccc23)n1 (stereo not given) + Cc1[nH]c2ccc(F)cc2c1-c1nc2c3cccnc3c3ncccc3c2[nH]1	%	93
Cn1ncnc1[C@H]1c2n[nH]c(=O)c3cc(F)cc(c23)N[C@@H]1c1ccc(F)cc1 + Cc1[nH]c2ccc(F)cc2c1-c1nc2c3cccnc3c3ncccc3c2[nH]1	%	101
CC(C)n1c(=O)n(C)c2cnc3cc(F)c(-c4ccc(OCCCN5CCCCC5)nc4)cc3c21 + CN(C)c1ccc(Nc2c3ccc(NC(=O)CCN4CCCC4)cc3nc3cc(NC(=O)CCN4CCCC4)ccc23)cc1	%	75.2
CC(=O)O[C@H]1C(=O)[C@@]2(C)[C@H]([C@H](OC(=O)c3ccccc3)[C@]3(O)C[C@H](OC(=O)[C@H](O)[C@@H](NC(=O)c4ccccc4)c4ccccc4)C(C)=C1C3(C)C)[C@]1(OC(C)=O)CO[C@@H]1C[C@@H]2O + Cc1[nH]c2ccc(F)cc2c1-c1nc2c3cccnc3c3ncccc3c2[nH]1	%	83.2

stdin: Entry C=CC(=O)N1CCN(c2nc(=O)n(-c3c(C)ccnc3C(C)C)c3nc(-c4c(O)cccc4F)c(F)cc23)C(C)C1 (stereo not given) + Cc1cnc(CNC(=O)c2c(=O)c3ccc(N4CCCN(C)CC4)nc3n3c2sc2ccccc23)cn1 needs its viability, T/C filled in; supply it.
stdout: 47.9

stdin: Entry CCCS(=O)(=O)Nc1ccc(F)c(C(=O)c2c[nH]c3ncc(-c4ccc(Cl)cc4)cc23)c1F + CN(C)c1ccc(Nc2c3ccc(NC(=O)CCN4CCCC4)cc3nc3cc(NC(=O)CCN4CCCC4)ccc23)cc1 needs its viability, T/C filled in; supply it.
stdout: 84.3

stdin: Entry Cc1cccc(N(C)C(=O)C2C(O)CCN2c2nc(C)cc(C(F)(F)F)c2C#N)c1 (stereo not given) + Cc1[nH]c2ccc(F)cc2c1-c1nc2c3cccnc3c3ncccc3c2[nH]1 needs its viability, T/C filled in; supply it.
stdout: 106

stdin: Entry Cc1cccc(N(C)C(=O)C2C(O)CCN2c2nc(C)cc(C(F)(F)F)c2C#N)c1 (stereo not given) + Cc1cnc(CNC(=O)c2c(=O)c3ccc(N4CCCN(C)CC4)nc3n3c2sc2ccccc23)cn1 needs its viability, T/C filled in; supply it.
stdout: 59.2

stdin: Entry C=CC(=O)N1CCN(c2nc(=O)n(-c3c(C)ccnc3C(C)C)c3nc(-c4c(O)cccc4F)c(F)cc23)C(C)C1 (stereo not given) + CN(C)c1ccc(Nc2c3ccc(NC(=O)CCN4CCCC4)cc3nc3cc(NC(=O)CCN4CCCC4)ccc23)cc1 needs its viability, T/C filled in; supply it.
stdout: 111

* * *

Test system: 435261-313-R-J1-PDC complex spheroid viability
TEST_NAME: Anticancer human tumor 435261-313-R-J1-PDC cell line growth inhibition [GQUAD];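 note: spheroids exposed to the agents for seven days before readout; percent of vehicle control viability with DMSO wells as 100%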
CONDITION: second compound 0.0316 µM; first compound 0.316 µM; stronger effect = lower value
VALUE_TYPE: viability, T/C (%)
Express it in %; write the number only.

Record excerpt, results attached:
COMPOUND	ASSAYED_SYSTEM	QUANTITY_UNIT	NUMERIC_READOUT
C#Cc1c(F)ccc2cc(O)cc(-c3ncc4c(N5CC6CCC(C5)N6)nc(OCC56CCCN5CC(F)C6)nc4c3F)c12 (centres undefined) + Cc1[nH]c2ccc(F)cc2c1-c1nc2c3cccnc3c3ncccc3c2[nH]1	435261-313-R-J1-PDC complex spheroid viability	%	88.9
COc1cccc2c1C(=O)c1c(O)c3c(c(O)c1C2=O)CC(O)(C(=O)CO)CC3OC1CC(N)C(O)C(C)O1 (centres undefined) + Cc1cnc(CNC(=O)c2c(=O)c3ccc(N4CCCN(C)CC4)nc3n3c2sc2ccccc23)cn1	435261-313-R-J1-PDC complex spheroid viability	%	46.4
CCc1c2c(nc3ccc(O)cc13)-c1cc3c(c(=O)n1C2)COC(=O)[C@]3(O)CC + CN(C)c1ccc(Nc2c3ccc(NC(=O)CCN4CCCC4)cc3nc3cc(NC(=O)CCN4CCCC4)ccc23)cc1	435261-313-R-J1-PDC complex spheroid viability	%	48.6

Now let's try a different one.
stdin: Entry CC(=O)O[C@H]1C(=O)[C@@]2(C)[C@H]([C@H](OC(=O)c3ccccc3)[C@]3(O)C[C@H](OC(=O)[C@H](O)[C@@H](NC(=O)c4ccccc4)c4ccccc4)C(C)=C1C3(C)C)[C@]1(OC(C)=O)CO[C@@H]1C[C@@H]2O + CN(C)c1ccc(Nc2c3ccc(NC(=O)CCN4CCCC4)cc3nc3cc(NC(=O)CCN4CCCC4)ccc23)cc1 needs its viability, T/C filled in; supply it.
stdout: 84.6

* * *

Tested on: 435261-313-R-J1-PDC complex spheroid viability
TEST_NAME: Anticancer human tumor 435261-313-R-J1-PDC cell line growth inhibition [GQUAD];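 note: spheroids exposed to the agents for seven days before readout; percent of vehicle control viability with DMSO wells as 100%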
CONDITION: second compound 0.1 µM; first compound 10 µM; stronger effect = lower value
VALUE_TYPE: viability, T/C (%)
Express it in %; write the number only.

Record excerpt, results attached:
COMPOUND	ASSAYED_SYSTEM	viability, T/C (%)
C=CC(=O)N1CCN(c2nc(=O)n(-c3c(C)ccnc3C(C)C)c3nc(-c4c(O)cccc4F)c(F)cc23)C(C)C1 (stereo not given) + Cc1[nH]c2ccc(F)cc2c1-c1nc2c3cccnc3c3ncccc3c2[nH]1	435261-313-R-J1-PDC complex spheroid viability	97.8
Nc1ccn(C2OC(CO)C(O)C2(F)F)c(=O)n1 (stereo not given) + CN(C)c1ccc(Nc2c3ccc(NC(=O)CCN4CCCC4)cc3nc3cc(NC(=O)CCN4CCCC4)ccc23)cc1	435261-313-R-J1-PDC complex spheroid viability	68.5
COc1ncnc(C2CC2)c1-c1ncc2cnn(Cc3ccc(-c4nc(C(F)(F)F)cn4C(C)C)cc3)c2n1 + Cc1cnc(CNC(=O)c2c(=O)c3ccc(N4CCCN(C)CC4)nc3n3c2sc2ccccc23)cn1	435261-313-R-J1-PDC complex spheroid viability	53.8
Cc1cccc(N(C)C(=O)C2C(O)CCN2c2nc(C)cc(C(F)(F)F)c2C#N)c1 (stereo not given) + CN(C)c1ccc(Nc2c3ccc(NC(=O)CCN4CCCC4)cc3nc3cc(NC(=O)CCN4CCCC4)ccc23)cc1	435261-313-R-J1-PDC complex spheroid viability	84.8

Now let's try a different one.
stdin: Entry O=c1[nH]cc(F)c(=O)[nH]1 + Cc1cnc(CNC(=O)c2c(=O)c3ccc(N4CCCN(C)CC4)nc3n3c2sc2ccccc23)cn1 needs its viability, T/C filled in; supply it.
stdout: 61.1
